Test system: 556581-035-R-J1-PDC complex spheroid viability
test_method_notes: Anticancer human tumor 556581-035-R-J1-PDC patient-derived ovarian carcinoma cell line growth inhibition
stated_conditions: second compound 10 µM; first compound 0.0949 µM; stronger effect = lower value
Quick reference for viability, T/C among some compounds
Field: numeric (%). Do not append units.

The compound listed as O=C(C=Cc1cccc(S(=O)(=O)Nc2ccccc2)c1)NO + NC1CCC(NC2CC2c2ccccc2)CC1 has a reported viability, T/C of 37.6

Measured viability, T/C of COc1cc(C2c3cc4c(cc3C(OC3OC5COC(C)OC5C(O)C3O)C3COC(=O)C23)OCO4)cc(OC)c1O (stereo not drawn) + NC1CC1c1ccc(-c2cccc(O)c2)cc1 : 59.9

Sure, the documented viability, T/C for Nc1ccn(C2OC(CO)C(O)C2(F)F)c(=O)n1 (stereo not drawn) + NC1CC1c1ccc(-c2cccc(O)c2)cc1 is 37.1

----------
System: 556581-035-R-J1-PDC complex spheroid viability
test_method_notes: Anticancer human tumor 556581-035-R-J1-PDC cell line growth inhibition;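 note: spheroids exposed to agents for seven days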
stated_conditions: curve of first compound; second compound 3.16 µM
# IC50 per entry

CCN(c1cc(-c2ccc(CN3CCOCC3)cc2)cc(C(=O)NCc2c(C)cc(C)[nH]c2=O)c1C)C1CCOCC1 + NC1CCC(NC2CC2c2ccccc2)CC1 :: > 3 µM

Reported IC50 ( CC1COCCN1c1cc(C2(S(C)(=N)=O)CC2)nc(-c2ccnc3[nH]ccc23)n1 (centres undefined) + NC1CC1c1ccc(-c2cccc(O)c2)cc1 ) = > 10 µM

Per the records, this compound ( CCc1c2c(nc3ccc(O)cc13)-c1cc3c(c(=O)n1C2)COC(=O)[C@]3(O)CC + NC1CCC(NC2CC2c2ccccc2)CC1 ) has IC50 equal to < 0.000949 µM

IC50 in this record for O=C(c1cc(Cc2n[nH]c(=O)c3ccccc23)ccc1F)N1CCN(C(=O)C2CC2)CC1 + NC1CC1c1ccc(-c2cccc(O)c2)cc1 : > 10 µM

----------
System: 556581-035-R-J1-PDC complex spheroid viability
test_method_notes: Anticancer human tumor 556581-035-R-J1-PDC cell line growth inhibition;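 note: spheroids exposed to agents for seven days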
stated_conditions: curve of first compound; second compound 10 µM
parameter: IC50

These recorded examples may help you get a feel for the data.
CC(C)CC(NC(=O)C(Cc1ccccc1)NC(=O)c1cnccn1)B(O)O (centres undefined) + NC1CCC(NC2CC2c2ccccc2)CC1 :: < 0.316 nM
Nc1ncn(C2CC(O)C(CO)O2)c(=O)n1 (centres undefined) + NC1CC1c1ccc(-c2cccc(O)c2)cc1 :: > 1000 nM
CC(C)CC(NC(=O)C(Cc1ccccc1)NC(=O)c1cnccn1)B(O)O (centres undefined) + NC1CC1c1ccc(-c2cccc(O)c2)cc1 :: < 0.316 nM

get_value(item= CC(C)c1c(-c2ccccc2)nc2c(C#N)c[nH]n2c1=O + NC1CC1c1ccc(-c2cccc(O)c2)cc1 , readout=IC50) returns > 10000 nM
